assayedTarget: purified human plasma kallikrein (Homo sapiens (Human), UniProt P03952)
Sequence (P03952 whole entry, looked up): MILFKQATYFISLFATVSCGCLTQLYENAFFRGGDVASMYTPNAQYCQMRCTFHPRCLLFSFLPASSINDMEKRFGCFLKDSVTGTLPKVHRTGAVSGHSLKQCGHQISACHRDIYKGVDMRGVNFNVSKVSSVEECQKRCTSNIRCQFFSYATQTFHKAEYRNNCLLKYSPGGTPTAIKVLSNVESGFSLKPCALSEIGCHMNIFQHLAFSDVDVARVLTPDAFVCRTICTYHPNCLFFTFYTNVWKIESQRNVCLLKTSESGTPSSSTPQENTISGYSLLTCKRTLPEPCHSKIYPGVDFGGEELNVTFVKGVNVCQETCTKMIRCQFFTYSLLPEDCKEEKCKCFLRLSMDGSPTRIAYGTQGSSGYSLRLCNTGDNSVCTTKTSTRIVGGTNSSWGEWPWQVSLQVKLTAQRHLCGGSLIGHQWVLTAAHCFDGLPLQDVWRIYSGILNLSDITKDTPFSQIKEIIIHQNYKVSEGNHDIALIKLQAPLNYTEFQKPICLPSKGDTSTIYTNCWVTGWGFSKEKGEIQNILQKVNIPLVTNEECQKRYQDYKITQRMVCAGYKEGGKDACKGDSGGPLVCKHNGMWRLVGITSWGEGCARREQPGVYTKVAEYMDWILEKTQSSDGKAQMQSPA
Sequence (P03952 whole entry partner, looked up): as the sequence (P03952 whole entry, looked up) above
experimentalProtocol: biochemical
Format: biochemical
experimentalConditions: read-out: Plasma Kallikrein Ki
Where a name gives a salt, the structure may show the parent alone.
The molecules listed here are annotated with their Ki.
The answer consists of two parts: a number and, after it, its unit.

Take a look at these entries with their results.
{"molecule": "C[C@@H]1CCC[C@H](N2CCC(c3c(C#N)ccc(C#N)c3F)=CC2=O)c2cc(ccn2)-c2c(ccc(F)c2F)NC1=O [Example 209, TFA salt]", "assayedTarget": "purified human plasma kallikrein (Homo sapiens (Human), UniProt P03952)", "Ki": "457 nM"}
{"molecule": "COC(=O)Nc1ccc2c(c1)NC(=O)[C@H](C)CCC[C@H](N1CCC(C3CCCCN3C)=CC1=O)c1cc-2ccn1 (stereo partly drawn) [Example 158, TFA salt]", "assayedTarget": "purified human plasma kallikrein (Homo sapiens (Human), UniProt P03952)", "Ki": "10900 nM"}

Problem: Report Ki for C[C@@H]1CCC[C@H](N2CCC(c3cc(Cl)ccc3-n3ccnn3)=CC2=O)c2cc(ccn2)-c2cc(F)ccc2NC1=O tested on purified human plasma kallikrein (Homo sapiens (Human), UniProt P03952).
Solution: 23.2 nM

====

assayedTarget: UniProtKB P03951
experimentalProtocol: biochemical
Format: biochemical
experimentalConditions: read-out: Factor XIa Ki
Where a name gives a salt, the structure may show the parent alone.
Mark 1 for Ki under 50 nM, -1 if at or over.

Sample answers from the record:
{"molecule": "COC(=O)Nc1ccc2c(c1)NC(=O)[C@H](C)CCC[C@H](N1CCC(c3nccc(Cl)c3OC)=CC1=O)c1cc-2cc(OC)n1 [Example 6, TFA salt]", "answerLabel": -1}
{"molecule": "C[C@@H]1CCC[C@H](N2CCC(c3c(F)ccc(Cl)c3F)=CC2=O)c2cc(ccn2)-c2cc(C(=O)O)ccc2NC1=O", "answerLabel": 1}

Problem: Here's an entry: COC(=O)c1ccc2c(c1)-c1ccnc(c1)[C@@H](N1CCC(c3c(C(F)(F)F)ccc(Cl)c3F)=CC1=O)CCC[C@@H](C)C(=O)N2 . Is its Ki below 50 nM?
Solution: -1

Problem: Here's an entry: C[C@@H]1CCC[C@H](N2CCC(c3c(F)ccc(Cl)c3F)=CC2=O)c2cc(ccn2)-c2c(F)cccc2NC1=O [Example 80, TFA salt] . Is its Ki below 50 nM?
Solution: 1

Problem: Here's an entry: COC(=O)Nc1ccc2c(c1)NC(=O)[C@H](C)CCC[C@H](N1CCC(c3ccccc3OC)=CC1=O)c1cc-2ccn1 . Is its Ki below 50 nM?
Solution: -1

Problem: Here's an entry: CC(C)[C@@H]1CCC[C@H](N2CCC(c3c(F)ccc(Cl)c3F)=CC2=O)c2cc(ccn2)-c2ccccc2NC1=O [Example 95, TFA salt] . Is its Ki below 50 nM?
Solution: 1

Problem: Here's an entry: C[C@@H]1CCC[C@H](N2CCC(c3c(F)ccc(Cl)c3F)=CC2=O)c2cc(ccn2)-c2cc(F)ccc2NC1=O . Is its Ki below 50 nM?
Solution: 1

Problem: Here's an entry: C[C@@H]1CCC[C@H](N2CCC(c3c(F)ccc(Cl)c3F)=CC2=O)c2cc(ccn2)-c2ccc(O)cc2NC1=O [Example 18, TFA salt] . Is its Ki below 50 nM?
Solution: 1

Problem: Here's an entry: C[C@@H]1CCC[C@H](N2CCC(c3c(F)ccc(Cl)c3F)=CC2=O)c2cc(ccn2)-c2ccc(NC3O[C@@H](CO)[C@H](O)[C@@H](O)[C@@H]3O)cc2NC1=O (stereo partly drawn) . Is its Ki below 50 nM?
Solution: 1

Problem: Here's an entry: COC(=O)c1ccc2c(c1)-c1cccc(c1)[C@@H](N1CCC(c3c(C#N)ccc(Cl)c3F)=CC1=O)CCC[C@@H](C)C(=O)N2 . Is its Ki below 50 nM?
Solution: 1

Problem: Here's an entry: COC(=O)Nc1ccc2c(c1)NC(=O)[C@H](C)CCC[C@H](N1CCC(c3ccc(OC)cc3)=CC1=O)c1cc-2ccn1 . Is its Ki below 50 nM?
Solution: -1

====

assayedTarget: purified human Factor XIa (Homo sapiens (Human), UniProt P03951)
Sequence (P03951 whole entry, looked up): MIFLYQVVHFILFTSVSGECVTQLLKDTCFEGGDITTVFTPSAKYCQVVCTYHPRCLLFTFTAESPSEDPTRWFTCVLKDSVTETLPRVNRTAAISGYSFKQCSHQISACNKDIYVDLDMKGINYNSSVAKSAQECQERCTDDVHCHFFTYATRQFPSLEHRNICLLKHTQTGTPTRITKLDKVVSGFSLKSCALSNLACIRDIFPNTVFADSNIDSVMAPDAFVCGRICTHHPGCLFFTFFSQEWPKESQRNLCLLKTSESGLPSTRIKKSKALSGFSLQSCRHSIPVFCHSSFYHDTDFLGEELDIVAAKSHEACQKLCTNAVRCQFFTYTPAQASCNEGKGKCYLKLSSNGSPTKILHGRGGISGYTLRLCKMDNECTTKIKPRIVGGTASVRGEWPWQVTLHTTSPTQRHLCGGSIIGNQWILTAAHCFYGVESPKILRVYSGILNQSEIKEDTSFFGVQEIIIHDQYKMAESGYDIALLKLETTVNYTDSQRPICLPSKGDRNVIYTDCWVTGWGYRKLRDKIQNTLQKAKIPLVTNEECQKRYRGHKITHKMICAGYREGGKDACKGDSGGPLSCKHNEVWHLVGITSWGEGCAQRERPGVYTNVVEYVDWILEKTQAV
Sequence (P03951 whole entry partner, looked up): as the sequence (P03951 whole entry, looked up) above
experimentalProtocol: biochemical
Format: biochemical
experimentalConditions: read-out: Factor XIa Ki
Where a name gives a salt, the structure may show the parent alone.
measurementType: Ki (nM)
Just the number in nM, nothing appended.

Problem: Report Ki for C[C@@H]1CCC[C@H](N2CCC(c3c(F)ccc(Cl)c3F)=CC2=O)c2cc(ccn2)-c2ccc(NC(=O)OCCO)cc2NC1=O [Example 54, TFA salt] tested on purified human Factor XIa (Homo sapiens (Human), UniProt P03951).
Solution: 0.08

Problem: Report Ki for C[C@@H]1CCC[C@H](N2CCC(c3cc(Cl)ccc3-n3cncn3)=CC2=O)c2cc(ccn2)-c2ccccc2NC1=O [Example 71, TFA salt] tested on purified human Factor XIa (Homo sapiens (Human), UniProt P03951).
Solution: 1.68

Problem: Report Ki for CC(=O)c1ccc(Cl)c(F)c1C1=CC(=O)N([C@H]2CCC[C@@H](C)C(=O)Nc3ccccc3-c3ccnc2c3)CC1 [Example 48, TFA salt] tested on purified human Factor XIa (Homo sapiens (Human), UniProt P03951).
Solution: 4.77

Problem: Report Ki for COC(=O)Nc1ccc2c(c1)NC(=O)[C@H](C)CCC[C@H](N1CCC(c3c(C(F)(F)F)ccc(Cl)c3F)=CC1=O)c1cc-2ccn1 [Example 25, TFA salt] tested on purified human Factor XIa (Homo sapiens (Human), UniProt P03951).
Solution: 0.1

====

The compounds listed here are annotated with their Ki.
assayedTarget: purified human plasma kallikrein (Homo sapiens (Human), UniProt P03952)
experimentalProtocol: biochemical
Type: biochemical
experimentalConditions: read-out: Plasma Kallikrein Ki
Structures can show the parent of a compound that is named as a salt.
Just the number in nM, nothing appended.

{"compound": "C[C@@H]1CCC[C@H](N2CCC(c3c(F)ccc(Cl)c3F)=CC2=O)c2cc(ccn2)-c2cc(Br)ccc2NC1=O", "reportedResult": 91.3}
{"compound": "C[C@@H]1CCC[C@H](N2CCC(c3c(F)ccc(Cl)c3F)=CC2=O)c2cc(ccn2)-c2cn[nH]c2NC1=O", "reportedResult": 1320}
{"compound": "C[C@@H]1CCC[C@H](N2CCC(c3c(F)ccc(Cl)c3F)=CC2=O)c2cc(ccn2)-c2ccc(Nc3cnccn3)cc2NC1=O [Example 93, TFA salt]", "reportedResult": 3}

Problem: Report Ki for C[C@@H]1CCC[C@H](N2CCC(c3c(F)ccc(Cl)c3F)=CC2=O)c2cc(ccn2)-c2c(F)cc(F)cc2NC1=O [Example 201, TFA salt] tested on purified human plasma kallikrein (Homo sapiens (Human), UniProt P03952).
Solution: 105

Problem: Report Ki for C[C@@H]1CCC[C@H](N2CCC(c3c(F)ccc(Cl)c3F)=CC2=O)c2cc(ccn2)-c2cc3c(O)cc(=O)[nH]c3cc2NC1=O [Example 199, TFA salt] tested on purified human plasma kallikrein (Homo sapiens (Human), UniProt P03952).
Solution: 1.79

Problem: Report Ki for Cc1nn(C)cc1-c1ccc(Cl)c(F)c1C1=CC(=O)N([C@H]2CCC[C@@H](C)C(=O)Nc3ccccc3-c3ccnc2c3)CC1 [Example 60, TFA salt] tested on purified human plasma kallikrein (Homo sapiens (Human), UniProt P03952).
Solution: 1090

Problem: Report Ki for C[C@@H]1CCC[C@H](N2CCC(c3c(Br)ccc(Cl)c3F)=CC2=O)c2cc(ccn2)-c2ccccc2NC1=O [Example 45, TFA salt] tested on purified human plasma kallikrein (Homo sapiens (Human), UniProt P03952).
Solution: 7

Problem: Report Ki for Cc1ncn(-c2ccc(Cl)cc2C2=CC(=O)N([C@H]3CCC[C@@H](C)C(=O)Nc4ccccc4-c4ccnc3c4)CC2)n1 [Example 74, TFA salt] tested on purified human plasma kallikrein (Homo sapiens (Human), UniProt P03952).
Solution: 238

Problem: Report Ki for C[C@@H]1CCC[C@H](N2CCC(c3c(F)ccc(Cl)c3F)=CC2=O)c2cc(ccn2)-c2cc3c(cc2NC1=O)NC(=O)CC3 [Example 86, TFA salt] tested on purified human plasma kallikrein (Homo sapiens (Human), UniProt P03952).
Solution: 1

Problem: Report Ki for COC(=O)Nc1ccc2c(c1)NC(=O)[C@H](C)CCC[C@H](N1CCC(c3nccc(Cl)c3OC)=CC1=O)c1cc-2cc(OC)n1 [Example 6, TFA salt] tested on purified human plasma kallikrein (Homo sapiens (Human), UniProt P03952).
Solution: 303

Problem: Report Ki for COc1ccc2c(c1)NC(=O)[C@H](C)CCC[C@H](N1CCC(c3c(F)ccc(Cl)c3F)=CC1=O)c1cc-2ccn1 [Example 17, TFA salt] tested on purified human plasma kallikrein (Homo sapiens (Human), UniProt P03952).
Solution: 114

Problem: Report Ki for COC(=O)Nc1ccc2c(c1)NC(=O)[C@H](C)CCC[C@H](N1CCC(c3c(OC(F)F)ccc(Cl)c3F)=CC1=O)c1ccnc-2c1 [Example 31, TFA salt] tested on purified human plasma kallikrein (Homo sapiens (Human), UniProt P03952).
Solution: 3

Problem: Report Ki for COC(=O)Nc1ccc2c(c1)C(=O)NCCCCC[C@H](N1CCC(c3c(F)ccc(Cl)c3F)=CC1=O)c1cc-2ccn1 [Example 152, TFA salt] tested on purified human plasma kallikrein (Homo sapiens (Human), UniProt P03952).
Solution: 24.3

Problem: Report Ki for C[C@@H]1CCC[C@H](N2CCC(c3c(F)ccc(Cl)c3F)=CC2=O)c2cc(ccn2)-c2ccc(Nc3cccnc3)cc2NC1=O [Example 195, TFA salt] tested on purified human plasma kallikrein (Homo sapiens (Human), UniProt P03952).
Solution: 2.96

Problem: Report Ki for C[C@@H]1CCC[C@H](N2CCC(c3c(F)ccc(Cl)c3F)=CC2=O)c2cc(ccn2)-c2cc(CO)ccc2NC1=O tested on purified human plasma kallikrein (Homo sapiens (Human), UniProt P03952).
Solution: 118

Problem: Report Ki for COC(=O)c1ccc2c(c1)-c1cccc(c1)[C@@H](N1CCC(c3c(C#N)ccc(Cl)c3F)=CC1=O)CCC[C@@H](C)C(=O)N2 tested on purified human plasma kallikrein (Homo sapiens (Human), UniProt P03952).
Solution: 7.73

Problem: Report Ki for C[C@@H]1CCC[C@H](N2CCC(c3c(F)ccc(C#N)c3F)=CC2=O)c2cc(ccn2)-c2cc(C#N)ccc2NC1=O tested on purified human plasma kallikrein (Homo sapiens (Human), UniProt P03952).
Solution: 6050

Problem: Report Ki for C[C@@H]1CCC[C@H](n2ccc(-c3cccc(Cl)c3F)cc2=O)c2cc(ccn2)-c2c(F)cc(F)cc2NC1=O [Example 212, TFA salt] tested on purified human plasma kallikrein (Homo sapiens (Human), UniProt P03952).
Solution: 286

Problem: Report Ki for Cc1ccc2c(c1)-c1ccnc(c1)[C@@H](N1CCC(c3c(F)ccc(Cl)c3F)=CC1=O)CCC[C@@H](C)C(=O)N2 tested on purified human plasma kallikrein (Homo sapiens (Human), UniProt P03952).
Solution: 123
